Measured target: FP receptor (Homo sapiens)
Construct: endogenous in cells; host or cells: A549 lung carcinoma cells (ATCC CCL185)
Sequence (P43088 whole entry): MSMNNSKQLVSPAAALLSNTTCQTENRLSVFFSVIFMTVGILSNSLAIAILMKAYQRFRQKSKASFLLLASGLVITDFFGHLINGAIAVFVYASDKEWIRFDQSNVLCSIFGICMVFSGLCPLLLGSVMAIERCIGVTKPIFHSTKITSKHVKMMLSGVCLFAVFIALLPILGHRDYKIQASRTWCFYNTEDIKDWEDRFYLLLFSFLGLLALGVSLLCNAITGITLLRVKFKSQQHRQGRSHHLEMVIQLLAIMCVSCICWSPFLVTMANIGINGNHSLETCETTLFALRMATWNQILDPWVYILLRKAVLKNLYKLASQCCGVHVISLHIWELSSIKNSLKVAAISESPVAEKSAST
Assay overview: Phosphoinositide hydrolysis in permeabilized A549 cells loaded with synthetic peptides, stimulated with PGF2α
Assay type: cell-based
Conditions used: dose-response in permeabilized A549 cells stimulated with PGF2α; FIG. 2B; read-out: half maximal inhibitory concentration
No end group written: not given here.
Value type: pIC50
API: returns pIC50 as number; meaning -log10 of concentration in mol/L.

Task: pIC50 for KDTILQLNLKEYNLV-NH2 [PCP-4, KDTILQLNLK EYNLV-NH2] ?
Output: 4.30
